Test: yeast display, Sf9 membrane polyspecificity reagent, FACS + sequencing; frameworks hold sequencing errors
Measured metric: polyreactivity (PSR sort gate)

[
  {
    "Residue codes": "QVQLVESVGGLVQAGGSLRISCAASGSIFAVYAMGWYRQAPGKESELVAAITSSGGRTYYADSVKGRFTISRDNAKNTVYFQMNSLKPEDTAVYYSATRGDTRWGLDYWGQATQVTVSS",
    "Measured metric": "polyreactivity (PSR sort gate)",
    "Reported measurement": "high polyreactivity"
  },
  {
    "Residue codes": "QVQLVESGGGLVQAGGSLRLSCAASGFTFGYYAMGWYRQAPGKERELVAAISSSGGSTYYADSVKGRFTISRDNAKNTVYLQMNSLKPEDTAVYYCAVVVFSRVYRYFTSDYWGQGTQVTVSS",
    "Measured metric": "polyreactivity (PSR sort gate)",
    "Reported measurement": "high polyreactivity"
  }
]
